B1: APBB1IP (parent)
chain: FNYSVGFKDLNESLNALEDQDLDA

# Variants of: B1
# methodDescription: protein stability index of a GFP-peptide fusion (GPS, HEK-293T) (PSI 1-6); higher = more stable;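 note: lentivirally expressed fusions sorted by FACS into six bins by GFP to DsRed ratio, PSI derived from sequencing read proportions per bin multiplied by bin number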
# conditionInfo: c terminus: a fixed tail appended
endpointLabel: protein stability index
Hey, just send me the number, nothing else.

{"orderedResidues": "FNYSVGFKDLNESLNALIDQDLDA [E18I]", "endpointLabel": "protein stability index", "resultValue": 2.67}
{"orderedResidues": "FNYSVQFKDLNESLNALEDQDLDA [G6Q]", "endpointLabel": "protein stability index", "resultValue": 4.17}

Need protein stability index of FNYSVGFKDLYESLNALEDQDLDA [N11Y] , thanks.
3.25

Need protein stability index of FNYSVGFKDLNESLNALEDQDSDA [L22S] , thanks.
4.76

Need protein stability index of FNYSVGFKDLSESLNALEDQDLDA [N11S] , thanks.
4.21

Need protein stability index of FNYSVGFKDLNESLNAYEDQDLDA [L17Y] , thanks.
3.96

Need protein stability index of FNYSVNFKDLNESLNALEDQDLDA [G6N] , thanks.
4.04

Need protein stability index of FNYSVGFKDRNESLNALEDQDLDA [L10R] , thanks.
4.54

Need protein stability index of KNYSVGFKDLNESLNALEDQDLDA [F1K] , thanks.
4.39

Need protein stability index of FNYSVGFKDLNESLNALEDQSLDA [D21S] , thanks.
4.33

Source of measurements: the supplement of paper PMC10567573
